System: Human Embryo Kidney (HEK) 293 cells
assay_protocol: Hypothermia/rewarming injury of HEK cells, trypan blue viability count
Format: cell-based
condition: mean over the tested concentrations
Returns: string. Value is met if measured % cells that survived, Mean is below 60%, and not met if it is greater than or equal to it.

Past entries and their recorded results:
                                   compound  assigned_category
0  Cc1c2c(c(C(C)C)c(O)c1C(C)C)CCC(C)(C(=O)N1CCN(CC(=O)O)CC1)O2 (centres unmarked)                met
1  COC(=O)C1(C)CCc2c(c(C)c(C(C)C)c(O)c2C(C)C)O1 (centres unmarked)                met
2  Cc1c(C)c2c(c(C)c1O)CC[C@@](C)(C(=O)N1CCN(CC(=O)O)CC1)O2            not met
3  Cc1c(C)c2c(c(C)c1O)CCC(C)(C(=O)Nc1cccc([N+](=O)[O-])c1)O2 (centres unmarked)            not met
4  Cc1c(C)c2c(c(C)c1O)CCC(C)(C(=O)N1CCN(CCO)CC1)O2 (centres unmarked) [SUL - 138]            not met
5   Cc1c(C)c2c(c(C)c1O)CC[C@@](C)(C(=O)O)O2                met

Query: Strictly below 60%: is that where % cells that survived, Mean of Cc1c(C)c2c(c(C)c1O)CCC(C)(C(=O)N1CCN(CCO)CC1)O2 (centres unmarked) [SUL - 109] sits?
Result: not met

Query: Strictly below 60%: is that where % cells that survived, Mean of CCCCNC(=O)C1(C)CCc2c(C)c(O)c(C)c(C)c2O1 (centres unmarked) sits?
Result: met

Query: Strictly below 60%: is that where % cells that survived, Mean of Cc1c(C)c2c(c(C)c1O)CCC(C)(C(=O)N1CCC[C@H]1C(=O)O)O2 (single isomer, unassigned) [SUL - 144] sits?
Result: met

Query: Strictly below 60%: is that where % cells that survived, Mean of Cc1c(C)c2c(c(C)c1O)CCC(C)(C(=O)NC(C)C)O2 (centres unmarked) sits?
Result: met

Query: Strictly below 60%: is that where % cells that survived, Mean of Cc1c(C)c2c(c(C)c1O)CCC(C)(C(=O)N1CCOCC1)O2 (centres unmarked) sits?
Result: not met

Query: Strictly below 60%: is that where % cells that survived, Mean of Cc1c(C)c2c(c(C)c1O)CC[C@](C)(C(=O)NO)O2 sits?
Result: met

Query: Strictly below 60%: is that where % cells that survived, Mean of CCOC(=O)CN1CCN(C(=O)C2(C)CCc3c(C)c(O)c(C)c(C)c3O2)CC1 (centres unmarked) sits?
Result: met

---

Overview of recorded viability at 10 µM for various compounds
Test system: Human Embryo Kidney (HEK) 293 cells
assay_protocol: Hypothermia/rewarming injury of HEK cells, trypan blue viability count
Assay type: cell-based
condition: Homo sapiens, HEK293, 24 h, 10 μM; 24 h at 4° C., 24 h rewarming; read-out: % cells that survived
Report the value in % with no unit label.

Some solved entries appear below for comparison.
>>> df
                                   compound  unit_text  obs_value
0  Cc1c(C)c2c(c(C)c1O)CC[C@@](C)(C(=O)N1CCN(CC(=O)O)CC1)O2          %       99.4
1  Cc1c(C)c2c(c(C)c1O)CCC(C)(C(=O)N1CCOCC1)O2 (centres unmarked)          %       90.4
2            Cc1c(C)c2c(c(C)c1O)CCC(C)(C)O2          %       70.1
3  CCCCNCC1(C)CCc2c(C)c(O)c(C)c(C)c2O1 (centres unmarked)          %       84.8
4   Cc1c(C)c2c(c(C)c1O)CC[C@](C)(C(=O)NO)O2          %       96.7
5  Cc1c(C)c2c(c(C)c1O)CCC(C)(CN1CCCCC1)O2 (centres unmarked)          %       89.6

Given item Cc1c(C)c2c(c(C)c1O)CCC(C)(C(=O)N1CCC[C@H]1C(=O)O)O2 (mixture of isomers) , the value recorded as its viability at 10 µM is 49.5

Given item CCOC(=O)CN1CCN(C(=O)C2(C)CCc3c(C)c(O)c(C)c(C)c3O2)CC1 (centres unmarked) , the value recorded as its viability at 10 µM is 97

---

Overview of recorded viability at 10 µM for various compounds
System: Human Embryo Kidney (HEK) 293 cells
assay_protocol: Hypothermia/rewarming injury of HEK cells, trypan blue viability count
Format: cell-based
condition: Homo sapiens, HEK293, 24 h, 10 μM; 24 h at 4° C., 24 h rewarming; read-out: % cells that survived
Report the value in % with no unit label.

Some solved entries appear below for comparison.
>>> print(df.to_string())
                                   compound                        tested_system  obs_value
0  COC(=O)C1(C)CCc2c(c(C)c(C(C)C)c(O)c2C(C)C)O1 (stereo not drawn) [SUL - 146]  Human Embryo Kidney (HEK) 293 cells       80.7
1  Cc1c(C)c2c(c(C)c1O)CCC(C)(C(=O)N1CCN(CC(=O)O)CC1)O2 (racemic) [SUL - 136]  Human Embryo Kidney (HEK) 293 cells       99.5
2  Cc1c(C)c2c(c(C)c1O)CCC(C)(CN[C@H](CO)c1ccccc1)O2 (stereo partly drawn) [SUL - 129]  Human Embryo Kidney (HEK) 293 cells       89.9
3  Cc1c(C)c2c(c(C)c1O)CC[C@@](C)(C(=O)NO)O2 [SUL - 126]  Human Embryo Kidney (HEK) 293 cells       92.7
4  Cc1c(C)c2c(c(C)c1O)CCC(C)(C(=O)NCCCN1CCCCC1)O2 (stereo not drawn) [SUL - 102]  Human Embryo Kidney (HEK) 293 cells         82

Given item CCCCN1CCN(C(=O)C2(C)CCc3c(C)c(O)c(C)c(C)c3O2)CC1 (stereo not drawn) [SUL - 108] , the value recorded as its viability at 10 µM is 96.8
